Reference for the values: patent US8138168B1

Biological target: Recombinant human renin (Homo sapiens, UniProt P00797)
Construct: isolate the active form (residues 67-406); made in house; host or cells: FreeStyle 293-F cells (transient expression of pcDNA3.1(+)/hREN)
Sequence (P00797 67-406): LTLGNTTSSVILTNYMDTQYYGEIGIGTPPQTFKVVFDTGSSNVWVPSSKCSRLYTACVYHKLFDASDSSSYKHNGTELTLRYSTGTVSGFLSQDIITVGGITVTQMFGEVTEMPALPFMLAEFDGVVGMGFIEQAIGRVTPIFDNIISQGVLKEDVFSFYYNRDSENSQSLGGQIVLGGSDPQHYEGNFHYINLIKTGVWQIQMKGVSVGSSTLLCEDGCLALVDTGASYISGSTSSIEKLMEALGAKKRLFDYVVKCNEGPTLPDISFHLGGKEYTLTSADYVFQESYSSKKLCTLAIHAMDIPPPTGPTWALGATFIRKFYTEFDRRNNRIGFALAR
Assay: In vitro enzymatic activity assay of renin inhibitors (fluorogenic peptide substrate)
Type: biochemical
Details: read-out: IC50 of Exemplified Compounds Against Renin
pIC50: −log10 of the molar value.
// reported pIC50 per item

>  <COMPOUND>
COCCCn1c([C@@H]2CCCN(C(=O)[C@H](Cc3ccccc3)C(N)Cc3ccc(Cl)cc3)C2)nc2ccccc21 (some centres unmarked) [Compound 240]

>  <pIC50>
< 6.00

$$$$
>  <COMPOUND>
COCCCn1c([C@@H]2CCCN(C(=O)[C@@H]3CN(C(=O)c4cccc(Cl)c4)C[C@H]3N)C2)nc2ccccc21 [Compound 375]

>  <pIC50>
6.00 to 7.00

$$$$
>  <COMPOUND>
COCCCn1c([C@@H]2CCCN(C(=O)C[C@H](N)CNC(=O)c3ccc(-c4ccccc4[N+](=O)[O-])o3)C2)nc2ccccc21 [Compound 275]

>  <pIC50>
6.00 to 7.00

$$$$
>  <COMPOUND>
COCCCn1c([C@@H]2CCCN(C(=O)C[C@H](N)CNC(=O)c3ccccc3)C2)nc2ccccc21 [Compound 317]

>  <pIC50>
6.00 to 7.00

$$$$
>  <COMPOUND>
COCCCn1c([C@@H]2CCCN(C(=O)[C@@H]3CN(C(=O)c4cccc(OC)c4)C[C@H]3N)C2)nc2ccccc21 [Compound 421]

>  <pIC50>
< 6.00

$$$$

###

Biological target: Recombinant human renin (Homo sapiens)
Construct: isolate the active form (residues 67-406); made in house; host or cells: FreeStyle 293-F cells (transient expression of pcDNA3.1(+)/hREN)
Experiment: In vitro enzymatic activity assay of renin inhibitors (fluorogenic peptide substrate)
Format: biochemical
Settings: read-out: IC50 of Exemplified Compounds Against Renin
The following molecules are listed with their measured IC50 values.

>  <STRUCTURE STRING>
COCCCn1c([C@@H]2CCCN(C(=O)C[C@H](N)Cc3ccc(N4CCC(CCO)CC4)cc3)C2)nc2ccccc21

>  <IC50>
< 100 nM

$$$$
>  <STRUCTURE STRING>
COCCCn1c([C@@H]2CCCN(C(=O)[C@@H]3CN(S(=O)(=O)c4cccc(-c5nnc(C)o5)c4)C[C@H]3N)C2)nc2ccccc21

>  <IC50>
> 1000 nM

$$$$
>  <STRUCTURE STRING>
CC(=O)NCCn1c([C@@H]2CCCN(C(=O)C[C@H](N)Cc3ccc(-c4cnc(N)nc4)cc3)C2)nc2c(Cl)cccc21

>  <IC50>
100 to 1000 nM

$$$$
>  <STRUCTURE STRING>
COCCCn1c([C@@H]2CCCN(C(=O)C[C@H](N)Cc3ccc(-c4ccc(C(=O)N5CCOCC5)cc4)cc3)C2)nc2ccccc21

>  <IC50>
< 100 nM

$$$$
>  <STRUCTURE STRING>
COCCCn1c([C@@H]2CCCN(C(=O)C[C@H](N)CNC(=O)c3ccc(-c4ccc(Cl)cc4Cl)o3)C2)nc2ccccc21

>  <IC50>
100 to 1000 nM

$$$$
>  <STRUCTURE STRING>
COCCCn1c([C@@H]2CCCN(C(=O)C[C@H](N)Cc3cccc(Cl)c3)C2)nc2ccccc21

>  <IC50>
100 to 1000 nM

$$$$
>  <STRUCTURE STRING>
COCCCn1c([C@@H]2CCCN(C(=O)C[C@H](N)Cc3ccc4ccccc4c3)C2)nc2ccc(C#N)cc21

>  <IC50>
100 to 1000 nM

$$$$
>  <STRUCTURE STRING>
COCCCn1c([C@@H]2CCCN(C(=O)[C@@H]3CN(c4ccc([N+](=O)[O-])cc4)C[C@H]3N)C2)nc2ccccc21

>  <IC50>
100 to 1000 nM

$$$$
>  <STRUCTURE STRING>
COCCCn1c([C@@H]2CCCN(C(=O)C[C@H](N)Cc3cc(F)c(F)cc3F)C2)nc2ccccc21

>  <IC50>
100 to 1000 nM

$$$$
>  <STRUCTURE STRING>
COCCCn1c([C@@H]2CCCN(C(=O)C[C@H](N)Cc3ccc4ccccc4c3)C2)nc2c1CCCC2

>  <IC50>
100 to 1000 nM

$$$$
>  <STRUCTURE STRING>
COCCCn1c([C@@H]2CCCN(C(=O)C[C@H](N)CNC(=O)c3ccco3)C2)nc2ccccc21

>  <IC50>
> 1000 nM

$$$$
>  <STRUCTURE STRING>
COCCCn1c([C@@H]2CCCN(C(=O)C[C@H](N)Cc3ccc(-c4ccc(OC)nc4OC)cc3)C2)nc2ccccc21

>  <IC50>
< 100 nM

$$$$
>  <STRUCTURE STRING>
COCCCn1c([C@@H]2CCCN(C(=O)C[C@H](N)CNC(=O)c3ccc(-c4ccccc4F)o3)C2)nc2ccccc21

>  <IC50>
< 100 nM

$$$$
>  <STRUCTURE STRING>
COCCCn1c([C@@H]2CCCN(C(=O)C[C@H](N)Cc3ccc(-n4c(=O)[nH]c5ccccc54)cc3)C2)nc2ccccc21

>  <IC50>
< 100 nM

$$$$
>  <STRUCTURE STRING>
CC(=O)NCCn1c([C@@H]2CCCN(C(=O)C[C@H](N)Cc3ccc(-c4ccc(N)nc4)cc3)C2)nc2c(Cl)cccc21

>  <IC50>
< 100 nM

$$$$
>  <STRUCTURE STRING>
NC(=O)CCn1c([C@@H]2CCCN(C(=O)C[C@H](N)Cc3ccc(-c4ccccc4)cc3)C2)nc2ccccc21

>  <IC50>
> 1000 nM

$$$$
>  <STRUCTURE STRING>
COCCCn1c([C@@H]2CCCN(C(=O)C[C@H](N)Cc3ccc(-c4ccc(O)nc4)cc3)C2)nc2c(C)ccnc21

>  <IC50>
100 to 1000 nM

$$$$
>  <STRUCTURE STRING>
COCCCn1c([C@@H]2CCCN(C(=O)[C@@H]3CN(S(=O)(=O)c4cc(C)c(Cl)cc4C)C[C@H]3N)C2)nc2ccccc21

>  <IC50>
100 to 1000 nM

$$$$
>  <STRUCTURE STRING>
COCCCn1c([C@@H]2CCCN(C(=O)[C@@H]3CN(C(=O)c4ccc(OC)cc4)C[C@H]3N)C2)nc2ccccc21

>  <IC50>
> 1000 nM

$$$$
>  <STRUCTURE STRING>
CCCc1ccccc1NC(=O)NC[C@@H](N)CC(=O)N1CCC[C@@H](c2nc3ccccc3n2CCCOC)C1

>  <IC50>
100 to 1000 nM

$$$$

###

Target: Recombinant human renin (Homo sapiens, UniProt P00797)
Construct: isolate the active form (residues 67-406); made in house; host or cells: FreeStyle 293-F cells (transient expression of pcDNA3.1(+)/hREN)
Assay: In vitro enzymatic activity assay of renin inhibitors (fluorogenic peptide substrate)
Type: biochemical
Details: read-out: IC50 of Exemplified Compounds Against Renin
pIC50: −log10 of the molar value.
Entries annotated with measured pIC50

>  <MOLECULE>
COCCCn1c([C@@H]2CCCN(C(=O)C[C@H](N)CNC(=O)c3cccc4ccccc34)C2)nc2ccccc21

>  <pIC50>
6.00 to 7.00

$$$$
>  <MOLECULE>
O=C(NCc1ccccc1)N1CCCC(c2nc3ccccc3[nH]2)C1 (centres unmarked)

>  <pIC50>
< 6.00

$$$$
>  <MOLECULE>
O=C(Nc1cccnc1)N1CCCC(c2nc3ccccc3[nH]2)C1 (centres unmarked)

>  <pIC50>
< 6.00

$$$$
>  <MOLECULE>
COCCCn1c([C@@H]2CCCN(C(=O)[C@@H]3CN(C(=O)c4ccccc4OC)C[C@H]3N)C2)nc2ccccc21

>  <pIC50>
< 6.00

$$$$
>  <MOLECULE>
COCCCn1c([C@@H]2CCCN(C(=O)C[C@H](N)Cc3ccc4ccccc4c3)C2)nc2c(OC)cccc21

>  <pIC50>
6.00 to 7.00

$$$$
>  <MOLECULE>
CC(=O)Nc1ccc(-c2ccc(C[C@@H](N)CC(=O)N3CCC[C@@H](c4nc5ccccc5n4CCC(N)=O)C3)cc2)cc1

>  <pIC50>
6.00 to 7.00

$$$$
>  <MOLECULE>
COCCCn1c([C@@H]2CCCN(C(=O)C[C@H](N)CNS(=O)(=O)c3cccc(Cl)c3)C2)nc2ccccc21

>  <pIC50>
6.00 to 7.00

$$$$
>  <MOLECULE>
COCCCn1c([C@@H]2CCCN(C(=O)[C@@H]3CN(S(=O)(=O)c4ccc(OC)cc4)C[C@H]3N)C2)nc2ccccc21

>  <pIC50>
6.00 to 7.00

$$$$
>  <MOLECULE>
COCCCn1c([C@@H]2CCCN(C(=O)C[C@H](N)Cc3ccc(-c4ccc(C(=O)NCCOC)cc4Cl)cc3)C2)nc2ccccc21

>  <pIC50>
> 7.00

$$$$
>  <MOLECULE>
COCCCn1c([C@@H]2CCCN(C(=O)[C@@H]3CN(S(=O)(=O)c4c(F)cccc4F)C[C@H]3N)C2)nc2ccccc21

>  <pIC50>
6.00 to 7.00

$$$$
>  <MOLECULE>
COCCCn1c([C@@H]2CCCN(C(=O)C[C@H](N)Cc3ccc4ccccc4c3)C2)nc2ccc(OC)cc21

>  <pIC50>
6.00 to 7.00

$$$$
